assay: Oral bioavailability in Sprague-Dawley rat at 5 mg/kg by LC-MS/MS analysis; format: ADME, organism-based; conditions: in vivo
experimental.endpoint: bioavailability (%)

INSERT INTO results (molecular_string, units_symbol, inequality_sign, observed_value) VALUES
  ('Cc1nc(C)c([C@H](OC(C)(C)C)C(=O)O)c(N2CCC(C)(C)CC2)c1-c1ccc2c(c1)CCN(c1nccc(-c3cnccn3)n1)C2', '%', '=', 38),
  ('Cc1cccc(Cl)c1CN1CCc2cc(-c3cnc(C)c([C@H](OC(C)(C)C)C(=O)O)c3N3CCC(C)(C)CC3)ccc2C1', '%', '=', 71),
  ('Cc1nc(C)c([C@H](OC(C)(C)C)C(=O)O)c(N2CCC(C)(C)CC2)c1-c1ccc2c(c1)CCN(c1nc3cnccc3s1)C2', '%', '>', 100);

====

# bioavailability annotations
experiment: Oral bioavailability in cynomolgus monkey at 2 mg/kg by LC-MS/MS analysis; assay type: ADME, organism-based, Macaca fascicularis; conditions: in vivo
experimental.endpoint: bioavailability (%)

INSERT INTO results (molecular_string, observed_value) VALUES
  ('Cc1cccc(Cl)c1CN1CCc2cc(-c3c(C)nc(C)c([C@H](OC(C)(C)C)C(=O)O)c3N3CCC(C)(C)CC3)ccc2C1', 58),
  ('Cc1cccc(Cl)c1CN1CCc2cc(-c3cnc(C)c([C@H](OC(C)(C)C)C(=O)O)c3N3CCC(C)(C)CC3)ccc2C1', 51);

====

test: Oral bioavailability in Beagle dog at 2 mg/kg by LC-MS/MS analysis; assay type: ADME, organism-based, Canis lupus familiaris; conditions: in vivo
# bioavailability annotations
experimental.endpoint: bioavailability (%)

INSERT INTO measurements (molecular_string, observed_value) VALUES
  ('Cc1cccc(Cl)c1CN1CCc2cc(-c3c(C)nc(C)c([C@H](OC(C)(C)C)C(=O)O)c3N3CCC(C)(C)CC3)ccc2C1', 90),
  ('Cc1cccc(Cl)c1CN1CCc2cc(-c3cnc(C)c([C@H](OC(C)(C)C)C(=O)O)c3N3CCC(C)(C)CC3)ccc2C1', 89);

====

experiment: Metabolic stability in human liver microsomes assessed as parent compound disappearance by measuring half life at 0.5 uM in presence of NADPH by LC-MS/MS analysis; assay type: ADME, Microsome
# half-life at 0.5 µM annotations
experimental.endpoint: half-life at 0.5 µM (min)

INSERT INTO measurements (molecular_string, experimental_endpoint, units_symbol, inequality_sign, observed_value) VALUES
  ('Cc1nc(C)c([C@H](OC(C)(C)C)C(=O)O)c(N2CCC(C)(C)CC2)c1-c1cnc(OCCc2ccc(F)cc2)nc1', 'half-life at 0.5 µM', 'min', '=', 22),
  ('Cc1nc(C)c([C@H](OC(C)(C)C)C(=O)O)c(N2CCC(C)(C)CC2)c1-c1ccc2c(c1)CCN(Cc1ccc(F)cc1)C2', 'half-life at 0.5 µM', 'min', '=', 55),
  ('Cc1nc(C)c([C@H](OC(C)(C)C)C(=O)O)c(N2CCC(C)(C)CC2)c1-c1ccc(OCCc2ccc(F)cc2)nc1', 'half-life at 0.5 µM', 'min', '>', 120),
  ('Cc1nc(C)c([C@H](OC(C)(C)C)C(=O)O)c(N2CCC(C)(C)CC2)c1-c1ccc(OCCc2ccc(F)cc2)cc1', 'half-life at 0.5 µM', 'min', '>', 120),
  ('Cc1nc(C)c([C@H](OC(C)(C)C)C(=O)O)c(N2CCC(C)(C)CC2)c1-c1cnn(CCCc2ccc(F)cc2)c1', 'half-life at 0.5 µM', 'min', '=', 34),
  ('Cc1nc(C)c([C@H](OC(C)(C)C)C(=O)O)c(N2CCC(C)(C)CC2)c1C1=CCN(CCCc2ccc(F)cc2)CC1', 'half-life at 0.5 µM', 'min', '=', 35.5);
